biological target: human Farnesoid X receptor ligand-binding domain/Gal4 DNA binding domain chimera (Homo sapiens (Human), UniProt Q96RI1); assay: Cell-based FXR beta-lactamase reporter assay (FXR-UAS-bla HEK 293T cells); settings: cellular FXR beta-lactamase reporter assay, -log EC50
Sequence (Q96RI1 262-486, change not shown): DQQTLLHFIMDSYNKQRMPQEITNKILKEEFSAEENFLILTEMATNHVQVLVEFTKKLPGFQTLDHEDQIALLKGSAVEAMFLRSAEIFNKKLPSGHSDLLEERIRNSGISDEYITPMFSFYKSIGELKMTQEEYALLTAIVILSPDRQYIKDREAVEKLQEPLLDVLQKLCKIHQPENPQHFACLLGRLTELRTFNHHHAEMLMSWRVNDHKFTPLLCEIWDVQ
Measure: FXR pEC50
Note: the reply should be a number with no unit written.

Dear colleague, I am looking for the recorded FXR pEC50 of the following compound: O=C(O)c1cc(F)c2nc(N3[C@@H]4CC[C@H]3C[C@@H](OC(=O)c3c(-c5c(Cl)cccc5Cl)noc3C3(F)CC3)C4)sc2c1
8.4

Same again, this time with O=C(NS(=O)(=O)C1CC1)c1ccc(N2[C@@H]3CC[C@H]2C[C@H](OC(=O)c2c(-c4c(Cl)cccc4Cl)noc2C2CC2)C3)cc1
8.6

Next compound: O=C(O)c1cc(F)c2nc(N3[C@@H]4CC[C@H]3C[C@@H](OC(=O)c3c(-c5c(Cl)cccc5Cl)noc3C3CCC3)C4)sc2c1
7.5

Then CCCCCS(=O)(=O)NC(=O)c1ccc(N2[C@@H]3CC[C@H]2C[C@@H](OC(=O)c2c(-c4c(Cl)cccc4Cl)noc2C2CC2)C3)cc1 ?
8.5

Please do the same for O=C(O)c1cc(F)c2nc(N3[C@@H]4CC[C@H]3C[C@@H](OC(=O)c3c(-c5c(Cl)cccc5OC(F)F)noc3C3CC3)C4)sc2c1 as well.
7.4

Further, for O=C(O)c1cc(F)c2nc(N3[C@@H]4CC[C@H]3C[C@@H](OC(=O)c3c(-c5ccccc5OC(F)(F)F)noc3C3CC3)C4)sc2c1 ?
8.1

Repeat with O=C(NS(=O)(=O)CC1CC1)c1ccc(N2[C@@H]3CC[C@H]2C[C@H](OC(=O)c2c(-c4c(Cl)cccc4Cl)noc2C2CC2)C3)cc1
8.1

Further, for Cc1onc(-c2c(Cl)cccc2Cl)c1C(=O)O[C@H]1C[C@H]2CC[C@@H](C1)N2c1nc2c(F)cc(C(=O)O)cc2s1 ?
6.8

CC(C)S(=O)(=O)NC(=O)c1ccc(N2[C@@H]3CC[C@H]2C[C@@H](OC(=O)c2c(-c4c(Cl)cccc4Cl)noc2C2CC2)C3)cc1 , same question.
8.5

Same again, this time with O=C(O)c1cc(F)c2nc(N3[C@@H]4CC[C@H]3C[C@@H](OC(=O)c3c(C56CCC(CC5)CC6)noc3C3CC3)C4)sc2c1
6.6

Please do the same for O=C(O)c1cc(F)c2nc(N3[C@@H]4CC[C@H]3C[C@@H](OC(=O)c3c(C5CCC6(CC5)CC6)noc3C3CC3)C4)sc2c1 as well.
6.8

Now try O=C(O)c1cc(F)c2nc(N3[C@@H]4CC[C@H]3C[C@@H](OC(=O)c3c(-c5ccccc5)noc3C3CC3)C4)sc2c1 .
6

Now the same for CCCS(=O)(=O)NC(=O)c1ccc(N2[C@@H]3CC[C@H]2C[C@@H](OC(=O)c2c(-c4c(Cl)cccc4Cl)noc2C2CC2)C3)cc1
8.6

Next entry: CC1(c2onc(-c3c(Cl)cccc3Cl)c2C(=O)OC2C[C@H]3CC[C@@H](C2)N3c2nc3c(F)cc(C(=O)O)cc3s2)CC1 (single isomer, unassigned)
7.5

Further, for O=C(Cc1c(-c2c(Cl)cccc2Cl)noc1C1CC1)O[C@H]1C[C@H]2CC[C@@H](C1)N2c1nc2c(F)cc(C(=O)O)cc2s1 ?
6.4

Request: Cn1c(N2[C@@H]3CC[C@H]2C[C@@H](OC(=O)c2c(-c4c(Cl)cccc4Cl)noc2C2CC2)C3)nc2c(F)cc(C(=O)O)cc21
6.4

Then this compound: CC(C)(C)c1onc(-c2c(Cl)cccc2Cl)c1C(=O)OC1C[C@H]2CC[C@@H](C1)N2c1nc2c(F)cc(C(=O)O)cc2s1 (single isomer, unassigned)
7.6

Repeat for the following compound: O=C(O)c1cc(F)c2nc(N3[C@@H]4CC[C@H]3C[C@@H](OC(=O)c3c(-c5c(F)cccc5F)noc3C3CC3)C4)sc2c1
6.7

###

Biological target: human Farnesoid X receptor ligand-binding domain/Gal4 DNA binding domain chimera (Homo sapiens (Human))
Experiment: Cell-based FXR beta-lactamase reporter assay (FXR-UAS-bla HEK 293T cells)
Settings: cellular FXR beta-lactamase reporter assay, extent of activation relative to GW4064
Procedure: FXR activation was measured using a cell line and procedure obtained from Life Technologies (Cat #K1691). FXR-UAS-bla HEK 293T cells contain a human Farnesoid X receptor ligand-binding domain/Gal4 DNA binding domain chimera stably integrated into the CellSensor® UAS-bla HEK 293T cell line. […] Activation of FXR by bound ligands results in transcriptional activation of the beta-lactamase reporter gene, which is detected via assay of beta-lactamase activity. […]
Measure: % Efficacy (%)
Give the value, in units of %, as a plain number.

% Efficacy for O=C(NS(=O)(=O)CC1CC1)c1ccc(N2[C@@H]3CC[C@H]2C[C@H](OC(=O)c2c(-c4c(Cl)cccc4Cl)noc2C2CC2)C3)cc1 ?
107

Please do the same for O=C(O)c1cc(F)c2nc(N3[C@@H]4CC[C@H]3C[C@@H](OC(=O)c3c(-c5ccccc5OC(F)(F)F)noc3C3CC3)C4)sc2c1 as well.
116

Similarly, O=C(O)c1cc(F)c2nc(N3[C@@H]4CC[C@H]3C[C@@H](OC(=O)c3c(-c5c(F)cccc5F)noc3C3CC3)C4)sc2c1 ?
110

And the next one, O=C(O)c1cc(F)c2nc(N3[C@@H]4CC[C@H]3C[C@@H](OC(=O)c3c(-c5c(Cl)cccc5Cl)noc3C3CCC3)C4)sc2c1 ?
98

Please do the same for O=C(O)c1cc(F)c2nc(N3[C@@H]4CC[C@H]3C[C@@H](OC(=O)c3c(-c5ccccc5)noc3C3CC3)C4)sc2c1 as well.
93

Also need O=C(NS(=O)(=O)C1CC1)c1ccc(N2[C@@H]3CC[C@H]2C[C@H](OC(=O)c2c(-c4c(Cl)cccc4Cl)noc2C2CC2)C3)cc1 , thanks.
130

###

target: human Farnesoid X receptor ligand-binding domain/Gal4 DNA binding domain chimera (Homo sapiens (Human), UniProt Q96RI1); experiment: Cell-based FXR beta-lactamase reporter assay (FXR-UAS-bla HEK 293T cells); details: HEK-293T; read-out: % Efficacy
For each of the molecules below, state its Emax.
Note: state the figure and append the unit.

Suppose we examine the molecule O=C(O)c1ccc(N2[C@@H]3CC[C@H]2C[C@@H](OC(=O)c2c(-c4c(Cl)cccc4Cl)noc2C2CC2)C3)c(F)c1 ; what Emax value has been reported?
116%

And then O=C(O)c1cc(C2CC2)c2nc(N3[C@@H]4CC[C@H]3C[C@@H](OC(=O)c3c(-c5c(Cl)cccc5Cl)noc3C3CC3)C4)sc2c1 , what is it?
112%

Moving on to the next molecule: COc1cc(C(=O)O)cc2sc(N3[C@@H]4CC[C@H]3C[C@@H](OC(=O)c3c(-c5c(Cl)cccc5Cl)noc3C3CC3)C4)nc12
114%

Can you handle COc1cc2nc(N3[C@@H]4CC[C@H]3C[C@@H](OC(=O)c3c(-c5c(F)cccc5F)noc3C3CC3)C4)sc2cc1C(=O)O next?
99%

Request: O=C(O)c1ccc(N2[C@@H]3CC[C@H]2C[C@@H](OC(=O)c2c(-c4c(Cl)cccc4OC(F)F)noc2C2CC2)C3)c(F)c1
108%

And Cc1cc(C(=O)O)cc2sc(N3[C@@H]4CC[C@H]3C[C@@H](OC(=O)c3c(-c5c(Cl)cccc5Cl)noc3C3CC3)C4)nc12 ?
121%

###

assay: Western diet study; assay type: in vivo, C57BL/6 mice; conditions: male, C57BL/6, mouse, serum; 30 mg/kg q.d., after 2 weeks of treatment, 2 hours after the last dose; read-out: serum FXR agonist concentration
Measure: concentration at 2 h (ng/mL)
Give a bare numeral; the unit ng/mL is implied.

Tell me the measured concentration at 2 h of O=C(O)c1ccc([C@H]2C[C@@H]2c2ccc(OCc3c(-c4c(Cl)cccc4Cl)noc3C3CC3)cc2Cl)cc1 , please.
475

###

Assignment: determine reported EC50 for the given compounds.
target: human Farnesoid X receptor ligand-binding domain/Gal4 DNA binding domain chimera (Homo sapiens (Human)); test: Cell-based FXR beta-lactamase reporter assay (FXR-UAS-bla HEK 293T cells); conditions: cellular FXR beta-lactamase reporter assay, -log EC50; read-out: FXR pEC50 (converted)
Only the number, expressed in nM, is required.

What value of measured EC50 is listed for O=C(O)c1ccc(N2[C@@H]3CC[C@H]2C[C@@H](OC(=O)c2c(-c4c(Cl)cccc4Cl)noc2C2CC2)C3)cc1 [Compound I-34] ?
20

Continue with COc1cc2nc(N3[C@@H]4CC[C@H]3C[C@@H](OC(=O)c3c(-c5c(Cl)cccc5Cl)noc3C3CC3)C4)sc2cc1C(=O)O [Compound I-7]
7.94

Next entry: COc1cc(N2[C@@H]3CC[C@H]2C[C@@H](OC(=O)c2c(-c4c(Cl)cccc4Cl)noc2C2CC2)C3)ccc1C(=O)O [Compound I-39]
100

Same thing, different compound: CS(=O)(=O)NC(=O)c1ccc(N2[C@@H]3CC[C@H]2C[C@@H](OC(=O)c2c(-c4c(Cl)cccc4Cl)noc2C2CC2)C3)cc1 [Compound I-44]
6.31

What would you report for O=C(NCCS(=O)(=O)O)c1cc(F)c2nc(N3[C@@H]4CC[C@H]3C[C@@H](OC(=O)c3c(-c5c(Cl)cccc5Cl)noc3C3CC3)C4)sc2c1 [Compound I-5] ?
2510

Quick one: O=C(O)c1ccc(N2[C@@H]3CC[C@H]2C[C@@H](OC(=O)c2c(-c4c(Cl)cccc4OC(F)F)noc2C2CC2)C3)c(F)c1 [Compound I-43]
39.8

Try this compound too: Cc1cc(C(=O)O)cc2sc(N3[C@@H]4CC[C@H]3C[C@@H](OC(=O)c3c(-c5c(Cl)cccc5Cl)noc3C3(F)CC3)C4)nc12 [Compound I-59]
39.8

And O=C(O)c1cc(C2CC2)c2nc(N3[C@@H]4CC[C@H]3C[C@@H](OC(=O)c3c(-c5c(Cl)cccc5Cl)noc3C3CC3)C4)sc2c1 [Compound I-12] ?
7.94

Next compound: COc1cc(C(=O)O)cc2sc(N3[C@@H]4CC[C@H]3C[C@@H](OC(=O)c3c(-c5c(F)cccc5F)noc3C3CC3)C4)nc12 [Compound I-17]
126

And what about the compound CCc1cc(C(=O)O)cc2sc(N3[C@@H]4CC[C@H]3C[C@@H](OC(=O)c3c(-c5c(Cl)cccc5Cl)noc3C3CC3)C4)nc12 [Compound I-60] ?
6.31

Repeat with N#Cc1ccc(N2[C@@H]3CC[C@H]2C[C@@H](OC(=O)c2c(-c4c(Cl)cccc4Cl)noc2C2CC2)C3)cc1O [Compound I-53]
251

Request: CCCS(=O)(=O)NC(=O)c1cc(F)c2nc(N3[C@@H]4CC[C@H]3C[C@@H](OC(=O)c3c(-c5c(Cl)cccc5Cl)noc3C3(F)CC3)C4)sc2c1 [Compound I-62]
20
